B1: HDV Ribozyme (parent)
chain: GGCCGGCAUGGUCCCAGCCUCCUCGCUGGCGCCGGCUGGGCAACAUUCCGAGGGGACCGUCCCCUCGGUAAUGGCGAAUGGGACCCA

variants of: B1; test: self-cleavage, relative activity (ratio to wild type); higher = more cleavage; co-transcriptional
Property measured: self-cleavage
Returns: the value as a bare number; no unit string appended.

Variant designation | Property measured | Measurement
C7U C24U | self-cleavage | 0.261

As a next step, examine the variant that follows.
(Q) Can you share its self-cleavage? I mean this variant: G10A G34U
(A) 0.257

This collection of values is drawn from the RNAGym collection of RNA variant scans (doi:10.7554/elife.80360).
